Dear all, I have gathered published pIC50 values for PAK2 (PAK65) (Homo sapiens, UniProt Q13177); the list follows.
pIC50: −log10 of the molar value.

{"columns": ["Compound", "Measured parameter", "Recorded value"],
 "data": [
  ["CCNc1ccc(-c2ccnc(Nc3ccc(N4CCN(C)CC4)cc3)n2)cn1", "pIC50", "< 5.00"],
  ["CNC(=O)c1cc(-c2ccc(-c3cc4cnc(Nc5ccc(CCN(C)C)cc5)nc4n(C)c3=O)c(Cl)c2)ccn1", "pIC50", "6.30 to 7.30"],
  ["CCn1c(=O)c(-c2ccc(-c3cnc(C)s3)cc2Cl)cc2cnc(Nc3ccc(C4CCNCC4)c(F)c3)nc21", "pIC50", "> 7.30"],
  ["CCn1c(=O)c(-c2ccc(-c3noc(C)n3)cc2Cl)cc2cnc(Nc3ccc(N4CCNCC4)cc3)nc21", "pIC50", "> 7.30"]
]}

[Q] # return recorded pIC50 for input CCn1c(=O)c(-c2ccc(-c3ccnc(C(F)(F)F)n3)cc2Cl)cc2cnc(Nc3ccc(C4CCN(C)CC4)cc3)nc21
[A] > 7.30

[Q] Give the value of pIC50 reported for the following: CCn1c(=O)c(-c2ccc(-c3cn[nH]c3)cc2Cl)cc2cnc(Nc3ccc(N4CCN(C)CC4)cc3)nc21
[A] 6.30 to 7.30

[Q] Please look at this compound and report its pIC50: O=C(COc1cccc2c1C(=O)N(C1CCC(=O)NC1=O)C2=O)NCCCCCCC(=O)N1CC[C@H](NC2=Nc3cc(F)ccc3N(CC(F)F)c3ccc(Cl)cc32)C1 (stereo partly shown)
[A] < 5.00

====

Field: pIC50. System: UniProtKB Q13177. Provenance: assorted publications.
pIC50: −log10 of the molar value.

Solved entries:
{"columns": ["Compound", "Measured parameter", "Recorded value"],
 "data": [
  ["CCn1c(=O)c(-c2ccc(-c3ccnc(C)c3)cc2Cl)cc2cnc(Nc3ccc(C4CCN5CCCC5C4)cc3)nc21 (stereo not shown)", "pIC50", "6.30 to 7.30"],
  ["CCn1c(=O)c(-c2ccc(-c3ccncc3)s2)cc2cnc(Nc3ccc(N4CCN(C)CC4)cc3)nc21", "pIC50", "< 5.30"]
]}

[Q] Identify measured pIC50 corresponding to CCn1c(=O)c(-c2ccc(-c3cnc(C)s3)cc2Cl)cc2cnc(Nc3ccc(N4CCN(C)CC4)cc3)nc21
[A] > 7.30

[Q] Give the measured pIC50 for CCn1c(=O)c(-c2ccc(-c3ccnc(C(=O)NC)c3)cc2Cl)cc2cnc(Nc3ccc(C4CCN5CCCC5C4)cc3)nc21 (stereo not shown)
[A] 6.30 to 7.30

[Q] Give the reported pIC50 for this compound. CN1CCN(CCNc2ccc(-c3ccnc(Nc4ccc(N5CCN(C)CC5)cc4)n3)cn2)CC1
[A] < 5.00

[Q] Give pIC50 for the following compound: CNc1ncc2cc(-c3cc(NC(=O)c4cc(S(C)(=O)=O)n(-c5ccc(F)cc5)n4)ccc3Cl)c(=O)n(C)c2n1
[A] ≤ 5.00

[Q] Could you please provide reported pIC50 for Cc1ncccc1-c1ccc(-c2cc3cnc(Nc4ccc(CCN(C)C)cc4)nc3n(C)c2=O)c(Cl)c1 ? Thanks!
[A] 6.30 to 7.30

[Q] Specify measured pIC50 for O=C1CCC(N2C(=O)c3cccc(NCCOCCOCCC(=O)N4CC[C@H](NC5=Nc6cc(F)ccc6N(CC(F)F)c6ccc(Cl)cc65)C4)c3C2=O)C(=O)N1 (stereo partly shown) .
[A] 6.14

[Q] For the compound CCn1c(=O)c(-c2nc(C3CCN(C)CC3)sc2C)cc2cnc(Nc3ccc(N4CCN(C)CC4)cc3)nc21 , give its reported pIC50.
[A] < 5.30
